- ASSAYED SYSTEM: T1, Recombinant CSP (Wellcome Trust Sanger Institute, FIG. 22), CSP ectodomain with BirA biotinylation tag, … (Plasmodium falciparum strain 3D7, UniProt Q7K740 19-376, biotinylated at the BirA substrate peptide)
- T1 construct: extracellular domain; Expressed in HEK293, 45 kDa; order of the tags is that of the legend, not confirmed; also called biotinylated recombinant CSP
- TEST DESCRIPTION: SPR, IgG1 captured, CSP as analyte, 40 C; apparent affinity (avidity)
OBSERVABLE: koff

>>> recorded_measurement("Antibody 668, human IgG1 (antibody, V domains shown, human IgG1 with human lambda light chain constant region; HEK293 product; also called AB-000668; Ab668) VH: QVQLVQSGAEVKKPGASVKVSCKASGFTFTDYAMHWVRQAPGQRLEWMGWINAGNGYTKYSQKFQDRLTITRDTFASTVYMELSSLRSEDTTVYYCARDGFCPSNTCSGYYGMDVWGQGTTVTVSS VL: QSALTQPASVSGSPGQSITISCTGTSSDVGSYNYVSWYQQHPGKAPKLMIYDVNTRPSGVSIRFSASKSGNTASLTVSGLQAEDEAVYYCSSYAGSSTWVFGGGTKLTVL")
"2.47e-05 s⁻¹"
>>> recorded_measurement("Antibody 669, human IgG1 (antibody, V domains shown, human IgG1; HEK (Expi293F) product; also called AB-000669; Ab669) VH: QVQLVQSGAEVKKPGASVRVSCKASGFTFTSYAMHWVRQAPGQRLEWMGWINAGNGHTKYSQKFQDRVAITRDTSATTVYMDLSSLRSEDTAVYYCTRDGFCTSTTCSDHYGMDVWGQGTTVTVSS VL: QSALTQPASVSGSPGQSITISCTGTSSDVGSYNYVSWYQQHPGKAPKFMIYDVSKRPSGVSNRFSGSKSGNTASLTISGLQAEDEADYYCCSYAGSSTWVFGGGTKLTVL")
"0.000125 s⁻¹"
>>> recorded_measurement("Antibody 666, human IgG1 (antibody, V domains shown, human IgG1; also called Ab666) VH: QVQLVQSGAEVKKPGASVKVSCKASGYTFTNYAMHWVRQAPGQRLEWMGWINAGNGNTKYSQNFQGRVTITRDTSASTAYMELSSLRSEDTAVYYCARDEYYASGSYYDYYYYGMDVWGQGTTVTVTS VL: QSALTQPASVSGSPGQSITISCTGTSSDVGVYNYVSWFQQHPGKAPKLMIYNVSKRPSGVSNRFSGSKSGNTASLTISGLQAEDEADYYCCSYAGSSTWVFGGGTNLTVL")
"1.7e-05 s⁻¹"
>>> recorded_measurement("Antibody 667, human IgG1 (antibody, V domains shown, human IgG1 with human lambda light chain constant region; also called AB-000667; Ab667) VH: QVQLVQSGAEVKKPGASVKVSCRASGYTFTNYAMHWVRQAPGQRLEWMGWINAGNGYTKYSQKFQDRVTITRDTSATTAYMELSSLRSEDTAMYYCARDSFYDILSGPVYHYYGMDVWGQGTTVTVSS VL: QSALTQPDSVSGSPGQSITISCTGTSNDVGIYNHVSWYQQHPGKAPKLMIYDVNKRPSGISNRFSGSKSGDTASLTISGLQAEDEADYYCCSYAGSSAWVFGGGTKLTVL")
"6.46e-05 s⁻¹"
